Molecular target: Mitogen-activated protein kinase kinase kinase kinase 2 (Homo sapiens) (UniProt Q12851);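 note: values given as mean percent inhibition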
Sequence (Q12851 whole entry): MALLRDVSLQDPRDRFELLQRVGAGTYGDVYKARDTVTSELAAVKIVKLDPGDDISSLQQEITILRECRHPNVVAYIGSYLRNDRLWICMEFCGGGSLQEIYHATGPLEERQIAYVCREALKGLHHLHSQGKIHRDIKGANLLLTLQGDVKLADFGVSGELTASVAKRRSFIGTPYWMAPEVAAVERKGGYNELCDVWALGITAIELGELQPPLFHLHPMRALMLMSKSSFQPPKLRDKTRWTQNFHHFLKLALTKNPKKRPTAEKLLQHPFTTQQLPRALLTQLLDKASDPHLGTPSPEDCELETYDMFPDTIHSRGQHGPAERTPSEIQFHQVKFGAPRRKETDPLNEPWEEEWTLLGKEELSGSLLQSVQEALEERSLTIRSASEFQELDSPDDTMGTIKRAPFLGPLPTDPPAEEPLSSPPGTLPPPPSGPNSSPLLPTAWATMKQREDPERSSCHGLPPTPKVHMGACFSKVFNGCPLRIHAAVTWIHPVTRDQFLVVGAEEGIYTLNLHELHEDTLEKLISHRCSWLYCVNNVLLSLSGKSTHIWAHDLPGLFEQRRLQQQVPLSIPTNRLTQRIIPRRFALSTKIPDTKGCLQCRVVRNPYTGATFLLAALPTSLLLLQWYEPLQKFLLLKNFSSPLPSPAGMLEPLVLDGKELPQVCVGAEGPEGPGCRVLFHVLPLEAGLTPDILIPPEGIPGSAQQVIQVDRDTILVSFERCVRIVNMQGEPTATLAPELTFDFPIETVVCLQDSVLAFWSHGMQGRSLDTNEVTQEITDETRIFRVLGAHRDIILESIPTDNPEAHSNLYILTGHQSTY
Details: at 0.1 µM
For each of the compounds below, state its inhibition.
Enter your answer as a number in %; do not include the unit.

// inhibition lookup, key: CS(=O)(=O)CCNCc1ccc(-c2ccc3ncnc(Nc4ccc(OCc5ccccc5)c(Br)c4)c3c2)o1
0.72

Query (compound): Clc1ccc(CNc2nccc(-c3cnn4ncccc34)n2)cc1 ; field requested: inhibition
2.75

Field request: inhibition | item: c1ccc(-c2n[nH]cc2-c2ccnc(-c3ccc(OCCN4CCOCC4)cc3)c2)nc1
6.4

Query: inhibition; subject: CCN(CC)Cc1ccc(Nc2nccc(-c3cnn4ncccc34)n2)cc1
3.21

Requested field: inhibition. Item: COc1ccc2ncn(-c3cc(O[C@H](C)c4ccccc4Cl)c(C(N)=O)s3)c2c1
1.91

For the compound COc1ccc2cc(-c3c(-c4ccncc4)nc(-c4ccc(S(C)(=O)=O)cc4C)n3C)ccc2c1 , what inhibition is on record?
0.86

Query: inhibition; subject: Nc1nccc(-c2c(-c3ccc(F)cc3)ncn2C2CCC(O)CC2)n1 (stereo not given)
2.53

// lookup inhibition for COc1cc(Nc2ncc3c(C)nc(-c4cccc(C(F)(F)F)c4)n3n2)cc(OC)c1OC
-0.1

Name the recorded inhibition for CCS(=O)(=O)c1ccc(OC)c(Nc2ncc(-c3cccc(-c4ccccc4F)c3)o2)c1 .
1.69

// lookup inhibition for CCC(=O)Nc1ccc(C)c(-c2ccc(C(=O)NCC3CC3)cc2)c1
0.41
